Reported RP-LC retention time values are given for each entry in this list.
assay: gradient 5% acetonitrile 3 min, to 50% in 2 min, to 85% in 15 min, held 3 min, 100 µL/min; settings: column: Zorbax Extend-C18 2.1 x 50 mm; eluents: water / acetonitrile, 0.1% formic acid
QUANTITY_NAME: RP-LC retention time (s)

{"MOLECULE": "Cc1cc(C)cc(NC(=O)Nc2nccn(-c3cc(Cl)ccc3C)c2=O)c1", "READING_UNIT": "s", "READOUT_NUMBER": 1150}
{"MOLECULE": "CC(C)Oc1ccc(C(=O)N2CCC3(CC2)C(=O)N(C)c2ccccc23)cc1", "READING_UNIT": "s", "READOUT_NUMBER": 930}
{"MOLECULE": "Cc1noc(-c2ccc(=O)n(Cc3ccccc3F)n2)n1", "READING_UNIT": "s", "READOUT_NUMBER": 794}
{"MOLECULE": "Cc1sc(NC(=O)C(C)(C)C)nc1-c1ccc2c(c1)NC(=O)C(C)O2 (centres undefined)", "READING_UNIT": "s", "READOUT_NUMBER": 908}
{"MOLECULE": "CCn1nccc1-c1cccc(-c2noc(C3CCN(S(=O)(=O)c4ccc(C)cc4)CC3)n2)c1", "READING_UNIT": "s", "READOUT_NUMBER": 1170}
{"MOLECULE": "O=C(c1cccs1)N1CCCN(c2ccc(=O)n(-c3ccccc3)n2)CC1", "READING_UNIT": "s", "READOUT_NUMBER": 700}
{"MOLECULE": "CCn1c(SCC(=O)Nc2nc(-c3ccccc3)cs2)nnc1-c1nonc1NC(C)=O", "READING_UNIT": "s", "READOUT_NUMBER": 897}
{"MOLECULE": "Cn1c(=O)sc2cc(S(=O)(=O)N3CCC(C(=O)Nc4ccc5c(c4)OCO5)CC3)ccc21", "READING_UNIT": "s", "READOUT_NUMBER": 817}
{"MOLECULE": "CCOc1cc(C)c(C(C)C)cc1S(=O)(=O)NCc1ccccn1", "READING_UNIT": "s", "READOUT_NUMBER": 766}
{"MOLECULE": "COC(=O)C1=C(CN2CCOCC2)NC(=O)NC1c1ccc(C)cc1C (centres undefined)", "READING_UNIT": "s", "READOUT_NUMBER": 609}
{"MOLECULE": "Cc1noc2nc(C)n(CC(=O)Nc3ccc(F)c(F)c3)c(=O)c12", "READING_UNIT": "s", "READOUT_NUMBER": 790}
{"MOLECULE": "CC1(C(=O)NC2CCCC2)Cn2cnc(C(=O)NCc3ccc(F)cc3)c2C(=O)N1C1CC1 (centres undefined)", "READING_UNIT": "s", "READOUT_NUMBER": 759}
{"MOLECULE": "CC(C(=O)NCCCN1CCOCC1)n1c(=O)c(C(F)(F)F)nc2ccccc21 (centres undefined)", "READING_UNIT": "s", "READOUT_NUMBER": 644}
{"MOLECULE": "CCOc1ccc(-c2cc3c(=O)n(Cc4nc(-c5ccccc5C)no4)ncn3n2)cc1", "READING_UNIT": "s", "READOUT_NUMBER": 1130}
{"MOLECULE": "Cc1ccc2cc(CCC(=O)NCc3ccncc3)c(=O)[nH]c2c1", "READING_UNIT": "s", "READOUT_NUMBER": 570}
{"MOLECULE": "Cc1ccc(Cl)cc1NC(=O)Cc1c(C)nn(-c2nc(-c3ccc(F)cc3)cs2)c1C", "READING_UNIT": "s", "READOUT_NUMBER": 1250}
{"MOLECULE": "COc1ccc(-n2nnc3c(SCc4cccc([N+](=O)[O-])c4)ncnc32)cc1", "READING_UNIT": "s", "READOUT_NUMBER": 1100}
{"MOLECULE": "O=C(NCC12CCC=C1N(CC1CC1)C(=O)CC2)Nc1cccc(F)c1 (centres undefined)", "READING_UNIT": "s", "READOUT_NUMBER": 876}
{"MOLECULE": "CN(C)CCNC(=O)CN1C(=O)C2CCCCN2c2ccc(S(=O)(=O)N3CCCC3)cc21 (centres undefined)", "READING_UNIT": "s", "READOUT_NUMBER": 775}

====

test: gradient 5% acetonitrile 3 min, to 50% in 2 min, to 85% in 15 min, held 3 min, 100 µL/min; details: column: Zorbax Extend-C18 2.1 x 50 mm; eluents: water / acetonitrile, 0.1% formic acid

{"COMPOUND": "O=C1CCCCC(Cc2ccccc2)(C(=O)NCCc2ccccc2)N1 (stereo not given)", "RP-LC retention time [s]": 806}
{"COMPOUND": "NC(=O)C1CCN(C(=O)c2cc(-n3cnnn3)ccc2Cl)CC1", "RP-LC retention time [s]": 592}
{"COMPOUND": "COc1ccccc1CCC(=O)NCc1ccc2c(c1)ncn2C", "RP-LC retention time [s]": 595}
{"COMPOUND": "CCOCc1nc(C2CCCN2S(=O)(=O)c2cccc3nsnc23)no1 (stereo not given)", "RP-LC retention time [s]": 836}
{"COMPOUND": "CC(C)OC(=O)Cn1nc(-c2nc(-c3ccc(Cl)cc3)no2)ccc1=O", "RP-LC retention time [s]": 1080}
{"COMPOUND": "CCc1noc(-c2ccc(-n3cnc(C(=O)N(C)C4CCCCC4)c3)nc2)n1", "RP-LC retention time [s]": 944}
{"COMPOUND": "CC(=O)N1CCN(c2nc(-c3ccncc3)nc3c2CCC3)CC1", "RP-LC retention time [s]": 576}
{"COMPOUND": "COc1ccccc1-c1noc(C2CCCN2C(=O)Nc2cccc(Cl)c2)n1 (stereo not given)", "RP-LC retention time [s]": 941}
{"COMPOUND": "Cc1cccc(-c2ncccc2CNS(=O)(=O)c2cccs2)c1", "RP-LC retention time [s]": 677}
{"COMPOUND": "Cc1cc2nn(CC(=O)Nc3ccccc3)c(=O)n2c(-c2ccc(F)cc2)n1", "RP-LC retention time [s]": 800}
{"COMPOUND": "Cc1c(Cl)cccc1-n1nc(C)c2c(C(F)(F)F)cc(OCC(=O)NC(C)C)nc21", "RP-LC retention time [s]": 1160}
{"COMPOUND": "Cc1noc(-c2nn(C)c3c2CN(C(=O)c2cc4c(s2)CCCC4)CC3)n1", "RP-LC retention time [s]": 882}
{"COMPOUND": "COc1ccc(-c2nnc(-c3nc(N4CCC5(CC4)OCCO5)c4ccccc4n3)o2)cc1", "RP-LC retention time [s]": 936}
{"COMPOUND": "Cc1c(C(=O)O)nnn1-c1ccc2c(c1)CCC2", "RP-LC retention time [s]": 759}
{"COMPOUND": "COc1ccc(N2CCN(C(=O)C3CCN(S(=O)(=O)c4cn(C)c(C)n4)CC3)CC2)cc1", "RP-LC retention time [s]": 651}
{"COMPOUND": "COCc1nc2cccnc2n1C1CCN(C(=O)Nc2ccccc2)CC1", "RP-LC retention time [s]": 680}
{"COMPOUND": "O=C(/C=C\\c1ccccc1)Nc1ccc(-c2cn3cccnc3n2)cc1", "RP-LC retention time [s]": 683}
{"COMPOUND": "CCOC(=O)c1c(C)[nH]c(C(=O)N2CCC(CC(=O)NCc3cccc(C)c3)CC2)c1C", "RP-LC retention time [s]": 820}
{"COMPOUND": "COc1cccc(-n2cc(C(=O)OCC(=O)OC(C)C)c3ccccc3c2=O)c1", "RP-LC retention time [s]": 1060}
{"COMPOUND": "O=C(NCCc1cn2c(n1)SCC2)C(=O)Nc1ccc(F)cc1", "RP-LC retention time [s]": 542}

====

assay: gradient 5% acetonitrile 3 min, to 50% in 2 min, to 85% in 15 min, held 3 min, 100 µL/min; settings: column: Zorbax Extend-C18 2.1 x 50 mm; eluents: water / acetonitrile, 0.1% formic acid

{"MOLECULE": "CCc1nc2ccccc2c(=O)n1Cc1noc(-c2ccccc2OC)n1", "RP-LC retention time": "919 s"}
{"MOLECULE": "CCn1nccc1C(=O)N1c2ccccc2CC1c1nnc(C2CC2)o1 (stereo not given)", "RP-LC retention time": "755 s"}
{"MOLECULE": "CON(C)C(=O)C1CN(C(=O)COc2ccccc2F)C1", "RP-LC retention time": "629 s"}
{"MOLECULE": "COc1cc2c(cc1CNC(=O)c1cccs1)OCCCO2", "RP-LC retention time": "780 s"}
{"MOLECULE": "Cc1ccc(-c2ncccc2CNS(=O)(=O)c2ccc(Br)s2)cc1", "RP-LC retention time": "786 s"}
